Experiment: Inhibition of IL6 secretion in LPS/IL-1beta-stimulated human U87 cells compound pretreated at 10 uM for 30 mins before stimulation measured after 24 hrs by ELISA
Format: functional, U-87MG ATCC
Settings: U-87 MG
Listing of entries alongside the reported inhibition at 10 µM.
Give the value, in units of %, as a plain number.

Answered examples (3):
smiles_structure: CC(=O)Nc1ccc(Nc2ccc(C(=O)N3CCC(N4CCCCC4)CC3)cc2Cl)cc1
display_unit: %
inhibition at 10 µM: 36.1
//
smiles_structure: CN1Cc2ccccc2N(C)c2nc(Nc3ccc(C(=O)N4CCC(N5CCCCC5)CC4)cc3Cl)ncc21
display_unit: %
inhibition at 10 µM: 58.8
//
smiles_structure: COc1cc(C(=O)N2CCC(N3CCN(C)CC3)CC2)ccc1Nc1ncc2c(n1)N(C)c1ccccc1C(=O)N2C
display_unit: %
inhibition at 10 µM: 94.1

Proceed to the following item.
Exercise: Entry O=C(c1ccc(Nc2ccccc2[N+](=O)[O-])c(Cl)c1)N1CCC(N2CCCCC2)CC1 : reported inhibition at 10 µM = ?
Key: 45.6

---

Experiment: Inhibition of IL6 secretion in LPS/IL-1beta-stimulated human U87 cells compound pretreated at 10 uM for 30 mins before stimulation measured after 24 hrs by ELISA
Type: functional, U-87MG ATCC
Settings: U-87 MG
Listing of entries alongside the reported inhibition at 10 µM.
Give the value, in units of %, as a plain number.

Exercise: Entry COc1cccc(CNc2ccc(C(=O)N3CCC(N4CCCCC4)CC3)cc2Cl)c1 : reported inhibition at 10 µM = ?
Key: 52

---

Assay: Inhibition of IL6 secretion in LPS/IL-1beta-stimulated human primary microglia compound pretreated at 10 uM for 30 mins before stimulation measured after 24 hrs by ELISA
Format: functional
Record criterion met whenever inhibition at 10 µM is at 60% or higher; record criterion not met when lower.

Field: example entries. Status: answers known.
smiles_structure: O=C(c1ccc(Nc2ccccc2[N+](=O)[O-])c(Cl)c1)N1CCC(N2CCCCC2)CC1
group_label: criterion met

smiles_structure: COc1cc(C(=O)N2CCC(N3CCN(C)CC3)CC2)ccc1Nc1ncc2c(n1)N(C)c1ccccc1C(=O)N2C
group_label: criterion met

smiles_structure: O=C(c1ccc(Nc2cccnc2)c(Cl)c1)N1CCC(N2CCCCC2)CC1
group_label: criterion not met

smiles_structure: COc1ccccc1Nc1ccc(C(=O)N2CCC(N3CCCCC3)CC2)cc1Cl
group_label: criterion not met

From here, focus on the item given below.
Exercise: Quick check: does Cc1ccc(CNc2ccc(C(=O)N3CCC(N4CCCCC4)CC3)cc2Cl)cc1 have inhibition at 10 µM greater than or equal to 60%?
Key: criterion not met

---

Test: Inhibition of IL6 secretion in LPS/IL-1beta-stimulated human primary microglia compound pretreated at 10 uM for 30 mins before stimulation measured after 24 hrs by ELISA
Assay type: functional
observable: inhibition at 10 µM (%)
Give the value, in units of %, as a plain number.

smiles_structure: CC(=O)Nc1ccc(Nc2ccc(C(=O)N3CCC(N4CCCCC4)CC3)cc2Cl)cc1
inhibition at 10 µM [%]: 31.8
--
smiles_structure: CN1C(=O)c2ccccc2N(C)c2nc(Nc3ccc(C(=O)N4CCC(N5CCCCC5)CC4)cc3Cl)ncc21
inhibition at 10 µM [%]: 81.3
--
smiles_structure: O=C(c1ccc(Nc2ncccn2)c(Cl)c1)N1CCC(N2CCCCC2)CC1
inhibition at 10 µM [%]: 46.4
--
smiles_structure: COc1cccc(Nc2ccc(C(=O)N3CCC(N4CCCCC4)CC3)cc2Cl)c1
inhibition at 10 µM [%]: 53
--
smiles_structure: O=C(c1ccc(NCc2ccccc2)c(Cl)c1)N1CCC(N2CCCCC2)CC1
inhibition at 10 µM [%]: 65.3
--
smiles_structure: O=C(c1ccc(NC2CCCCC2)c(Cl)c1)N1CCC(N2CCCCC2)CC1
inhibition at 10 µM [%]: 82.4
--
smiles_structure: Cn1cccc1CNc1ccc(C(=O)N2CCC(N3CCCCC3)CC2)cc1Cl
inhibition at 10 µM [%]: 17.3
--
smiles_structure: CN1C(=O)c2ccccc2N(C)c2nc(Cl)ncc21
inhibition at 10 µM [%]: 18
--
smiles_structure: COc1cccc(CNc2ccc(C(=O)N3CCC(N4CCCCC4)CC3)cc2Cl)c1
inhibition at 10 µM [%]: 52.9
--
smiles_structure: CN1Cc2ccccc2N(C)c2nc(Cl)ncc21
inhibition at 10 µM [%]: 6.3

Exercise: Entry Nc1ccc(C(=O)N2CCC(N3CCCCC3)CC2)cc1Cl : reported inhibition at 10 µM = ?
Key: 16.9

Exercise: Entry O=C(c1ccc(Nc2ccc([N+](=O)[O-])cc2)c(Cl)c1)N1CCC(N2CCCCC2)CC1 : reported inhibition at 10 µM = ?
Key: 53.6

Exercise: Entry O=C(c1ccc(Nc2ccccc2)c(Cl)c1)N1CCC(N2CCCCC2)CC1 : reported inhibition at 10 µM = ?
Key: 44.7

Exercise: Entry O=C(c1ccc(Nc2ccccn2)c(Cl)c1)N1CCC(N2CCCCC2)CC1 : reported inhibition at 10 µM = ?
Key: 7.3

---

Biological target: Leucine-rich repeat serine/threonine-protein kinase 2 (Homo sapiens, UniProt Q5S007, G2019S)
Sequence (Q5S007 whole entry G2019S): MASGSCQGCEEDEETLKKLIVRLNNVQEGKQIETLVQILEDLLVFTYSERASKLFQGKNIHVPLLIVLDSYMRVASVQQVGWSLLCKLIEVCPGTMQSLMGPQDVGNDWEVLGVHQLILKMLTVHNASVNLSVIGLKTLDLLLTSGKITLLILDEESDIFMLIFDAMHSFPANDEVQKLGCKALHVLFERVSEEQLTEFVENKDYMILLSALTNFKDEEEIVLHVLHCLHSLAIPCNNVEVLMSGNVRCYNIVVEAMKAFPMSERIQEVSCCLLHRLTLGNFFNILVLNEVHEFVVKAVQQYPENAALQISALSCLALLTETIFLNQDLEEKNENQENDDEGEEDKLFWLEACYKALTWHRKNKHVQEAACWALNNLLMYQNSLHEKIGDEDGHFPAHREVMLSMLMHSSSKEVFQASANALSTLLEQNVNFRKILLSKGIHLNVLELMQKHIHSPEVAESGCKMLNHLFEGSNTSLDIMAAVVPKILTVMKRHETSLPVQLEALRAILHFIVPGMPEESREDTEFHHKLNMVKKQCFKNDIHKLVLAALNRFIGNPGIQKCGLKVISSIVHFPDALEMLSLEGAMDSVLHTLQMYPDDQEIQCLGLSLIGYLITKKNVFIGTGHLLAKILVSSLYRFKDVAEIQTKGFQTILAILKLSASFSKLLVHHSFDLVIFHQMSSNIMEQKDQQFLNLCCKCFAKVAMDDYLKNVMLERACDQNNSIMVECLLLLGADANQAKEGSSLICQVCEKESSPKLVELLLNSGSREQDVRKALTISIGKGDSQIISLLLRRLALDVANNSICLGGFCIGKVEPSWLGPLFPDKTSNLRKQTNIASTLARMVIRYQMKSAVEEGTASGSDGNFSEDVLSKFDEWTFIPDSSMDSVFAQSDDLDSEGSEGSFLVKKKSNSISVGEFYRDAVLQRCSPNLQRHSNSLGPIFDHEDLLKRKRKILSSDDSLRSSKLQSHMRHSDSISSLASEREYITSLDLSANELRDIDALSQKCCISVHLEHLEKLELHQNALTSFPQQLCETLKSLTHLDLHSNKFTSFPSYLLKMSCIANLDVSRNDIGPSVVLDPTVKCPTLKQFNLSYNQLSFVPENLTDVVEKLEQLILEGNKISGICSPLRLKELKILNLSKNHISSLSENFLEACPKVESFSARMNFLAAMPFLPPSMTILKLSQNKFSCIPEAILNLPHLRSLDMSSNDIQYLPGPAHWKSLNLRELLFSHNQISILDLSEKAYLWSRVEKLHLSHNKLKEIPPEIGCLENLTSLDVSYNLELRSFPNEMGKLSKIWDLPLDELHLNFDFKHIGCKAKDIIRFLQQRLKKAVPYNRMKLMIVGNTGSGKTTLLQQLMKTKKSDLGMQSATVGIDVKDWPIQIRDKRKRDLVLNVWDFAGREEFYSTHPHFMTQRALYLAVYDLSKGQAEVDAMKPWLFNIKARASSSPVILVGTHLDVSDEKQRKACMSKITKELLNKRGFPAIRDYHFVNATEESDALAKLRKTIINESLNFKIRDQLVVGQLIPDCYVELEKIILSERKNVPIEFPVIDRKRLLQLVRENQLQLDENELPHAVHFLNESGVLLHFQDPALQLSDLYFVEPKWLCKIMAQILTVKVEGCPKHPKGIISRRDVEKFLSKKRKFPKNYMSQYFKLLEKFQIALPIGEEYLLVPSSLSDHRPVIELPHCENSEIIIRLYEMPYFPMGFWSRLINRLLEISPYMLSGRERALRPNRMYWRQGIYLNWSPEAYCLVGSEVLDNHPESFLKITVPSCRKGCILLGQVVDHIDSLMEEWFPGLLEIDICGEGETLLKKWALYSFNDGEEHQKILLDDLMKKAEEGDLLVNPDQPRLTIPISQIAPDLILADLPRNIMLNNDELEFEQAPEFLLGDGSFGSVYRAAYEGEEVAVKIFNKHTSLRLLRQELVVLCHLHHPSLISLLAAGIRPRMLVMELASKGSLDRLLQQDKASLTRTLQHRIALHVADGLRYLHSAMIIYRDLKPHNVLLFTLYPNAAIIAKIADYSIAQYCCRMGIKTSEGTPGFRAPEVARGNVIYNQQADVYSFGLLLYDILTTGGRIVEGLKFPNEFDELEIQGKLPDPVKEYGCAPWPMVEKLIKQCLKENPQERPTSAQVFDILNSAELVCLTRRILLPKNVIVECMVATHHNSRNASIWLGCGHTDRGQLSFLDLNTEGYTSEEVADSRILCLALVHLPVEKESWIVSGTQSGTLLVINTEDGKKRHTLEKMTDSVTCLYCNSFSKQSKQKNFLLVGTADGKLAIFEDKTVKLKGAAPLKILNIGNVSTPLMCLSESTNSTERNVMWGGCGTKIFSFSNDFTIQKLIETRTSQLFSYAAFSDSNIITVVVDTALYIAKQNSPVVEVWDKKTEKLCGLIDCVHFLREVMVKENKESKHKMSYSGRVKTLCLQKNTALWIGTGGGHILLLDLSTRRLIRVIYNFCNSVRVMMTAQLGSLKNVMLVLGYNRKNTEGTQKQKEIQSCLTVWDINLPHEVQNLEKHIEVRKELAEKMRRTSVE
Assay: Inhibition of LRRK2 G2019S mutant ([…]) (unknown origin) stably expressed in HEK293 cell lysate using [gamma-32P] after 15 mins by Cerenkov counting method
observable: IC50

smiles_structure: O=C(c1ccc(Nc2ccccc2[N+](=O)[O-])c(Cl)c1)N1CCC(N2CCCCC2)CC1
IC50: > 1 µM

Proceed to the following item.
Exercise: Entry Cn1cccc1CNc1ccc(C(=O)N2CCC(N3CCCCC3)CC2)cc1Cl : reported IC50 = ?
Key: > 1 µM

---

Assay: Inhibition of IL6 secretion in LPS/IL-1beta-stimulated human primary microglia compound pretreated for 30 mins before stimulation measured after 24 hrs by ELISA
Assay type: functional
Listing of entries alongside the reported EC50.
Give the value, in units of nM, as a plain number.

Exercise: Entry COc1cc(C(=O)N2CCC(N3CCN(C)CC3)CC2)ccc1Nc1ncc2c(n1)N(C)c1ccccc1C(=O)N2C : reported EC50 = ?
Key: 830

Exercise: Entry CN1C(=O)c2ccccc2N(C)c2nc(Nc3ccc(C(=O)N4CCC(N5CCCCC5)CC4)cc3Cl)ncc21 : reported EC50 = ?
Key: 4260

---

Listing of entries alongside the reported inhibition at 10 µM.
Experiment: Inhibition of IL6 secretion in LPS/IL-1beta-stimulated human U87 cells compound pretreated at 10 uM for 30 mins before stimulation measured after 24 hrs by ELISA
Assay type: functional, U-87MG ATCC
Conditions: U-87 MG
Give the value, in units of %, as a plain number.

smiles_structure: O=C(c1ccc(Nc2cncnc2)c(Cl)c1)N1CCC(N2CCCCC2)CC1
display_unit: %
inhibition at 10 µM: 40.7

smiles_structure: O=C(Nc1ccc(C(=O)N2CCC(N3CCCCC3)CC2)cc1Cl)c1ccc[nH]1
display_unit: %
inhibition at 10 µM: 51.9

smiles_structure: O=C(c1ccc(Nc2ncccn2)c(Cl)c1)N1CCC(N2CCCCC2)CC1
display_unit: %
inhibition at 10 µM: 39.3

smiles_structure: COc1cccc(Nc2ccc(C(=O)N3CCC(N4CCCCC4)CC3)cc2Cl)c1
display_unit: %
inhibition at 10 µM: 47.8

smiles_structure: O=C(c1ccc(NCc2ccccc2)c(Cl)c1)N1CCC(N2CCCCC2)CC1
display_unit: %
inhibition at 10 µM: 62.6

Exercise: Entry O=C(c1ccc(NC2CCCCC2)c(Cl)c1)N1CCC(N2CCCCC2)CC1 : reported inhibition at 10 µM = ?
Key: 54.2

Exercise: Entry Nc1ccc(C(=O)N2CCC(N3CCCCC3)CC2)cc1Cl : reported inhibition at 10 µM = ?
Key: 49.9

Exercise: Entry O=C(c1ccc(Nc2cccnc2)c(Cl)c1)N1CCC(N2CCCCC2)CC1 : reported inhibition at 10 µM = ?
Key: 46.6

Exercise: Entry Cc1ccc(Nc2ccc(C(=O)N3CCC(N4CCCCC4)CC3)cc2Cl)cc1 : reported inhibition at 10 µM = ?
Key: 37.8

Exercise: Entry O=C(c1ccc(NCc2ccc([N+](=O)[O-])cc2)c(Cl)c1)N1CCC(N2CCCCC2)CC1 : reported inhibition at 10 µM = ?
Key: 56.4

Exercise: Entry COc1ccccc1Nc1ccc(C(=O)N2CCC(N3CCCCC3)CC2)cc1Cl : reported inhibition at 10 µM = ?
Key: 58.6

---

Test: Inhibition of IL6 secretion in LPS/IL-1beta-stimulated human primary microglia compound pretreated at 10 uM for 30 mins before stimulation measured after 24 hrs by ELISA
Format: functional
Listing of entries alongside the reported inhibition at 10 µM.
Provide a numeric answer, followed by its unit.

Answered examples (3):
smiles_structure: O=C(c1ccc(NCc2ccc([N+](=O)[O-])cc2)c(Cl)c1)N1CCC(N2CCCCC2)CC1
inhibition at 10 µM: 56.3%
//
smiles_structure: CN1Cc2ccccc2N(C)c2nc(Nc3ccc(C(=O)N4CCC(N5CCCCC5)CC4)cc3Cl)ncc21
inhibition at 10 µM: 70%
//
smiles_structure: Cc1ccc(Nc2ccc(C(=O)N3CCC(N4CCCCC4)CC3)cc2Cl)cc1
inhibition at 10 µM: 29.7%

Exercise: Entry CCCNc1ccc(C(=O)N2CCC(N3CCCCC3)CC2)cc1Cl : reported inhibition at 10 µM = ?
Key: 47.6%
